// Z Repl 2 lookup, one value per entry
# subject-of-test: tau (Homo sapiens, UniProt P10636)
# Sequence (P10636 623-695 limits assumed): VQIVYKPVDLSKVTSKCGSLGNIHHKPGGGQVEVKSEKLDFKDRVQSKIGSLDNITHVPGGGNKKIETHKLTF
# assay-summary: MCE Phenols Library screening, tau biosensor cell seeding assay (AvZ)
# Type: cell-based
# condition-context: Z score, replicate 2
I'd appreciate a reply containing only the number, no unit.

Reference set, count: 3
| molecule | Z Repl 2 |
| --- | --- |
| C=C(C)[C@H](CC=C(C)C)Cc1c(O)cc(O)c2c1O[C@H](c1ccc(O)cc1O)CC2=O | -0.412 |
| O=C(O)C=Cc1ccc(O)cc1 | 0.15 |
| CC=C1[C@H](O[C@@H]2O[C@H](CO)[C@@H](O)[C@H](O)[C@H]2O)OC=C(C(=O)OC)[C@H]1CC(=O)OC[C@H]1O[C@@H](OCCc2ccc(O)cc2)[C@H](O)[C@@H](O)[C@@H]1O (stereo in doubt) [Specneuzhenide] | 0.064 |

In plain terms, COc1cc(C(=O)O)cc(O)c1O has a documented Z Repl 2 of -0.532

In plain terms, CC[C@@H](C(=O)[C@@H](C)[C@@H](O)[C@H](C)CCc1ccc(C)c(O)c1C(=O)O)[C@H]1O[C@](CC)([C@H]2CC[C@](O)(CC)[C@H](C)O2)C[C@@H]1C has a documented Z Repl 2 of -0.218

In plain terms, COc1ccc(CCO[C@@H]2O[C@H](CO[C@@H]3O[C@H](CO)[C@H](O)[C@H](O)[C@H]3O)[C@@H](OC(=O)/C=C/c3ccc(O)c(OC)c3)[C@H](O[C@@H]3O[C@@H](C)[C@H](O)[C@@H](O)[C@H]3O)[C@H]2O)cc1O [Jionoside B1] has a documented Z Repl 2 of -0.42

In plain terms, COc1c(O)cc(O)c2c(=O)cc(-c3ccccc3)oc12 has a documented Z Repl 2 of 1.113
